# ASSAY TARGET: IgE antibodies of the allergic patient serum pool Bor 18/100 (20 donors)
# PROTOCOL DESCRIPTION: EAST inhibition, serum pool Bor 18/100
ASSAY READOUT: pIC50
# pIC50: negative log10 of molar concentration; output just the value

Form field: reported pIC50 of rPhl p 5b point mutant PM1 (N32D, D49L, K50A) (protein) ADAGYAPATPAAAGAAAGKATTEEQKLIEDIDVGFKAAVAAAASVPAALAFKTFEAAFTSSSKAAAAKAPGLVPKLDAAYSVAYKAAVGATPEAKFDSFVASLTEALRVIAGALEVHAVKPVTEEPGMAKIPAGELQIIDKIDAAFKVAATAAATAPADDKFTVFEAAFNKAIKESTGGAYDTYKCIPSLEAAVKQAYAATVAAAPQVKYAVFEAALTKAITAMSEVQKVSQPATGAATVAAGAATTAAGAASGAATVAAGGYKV
7.92

Also check natural Phl p 5b, purified by affinity chromatography (protein) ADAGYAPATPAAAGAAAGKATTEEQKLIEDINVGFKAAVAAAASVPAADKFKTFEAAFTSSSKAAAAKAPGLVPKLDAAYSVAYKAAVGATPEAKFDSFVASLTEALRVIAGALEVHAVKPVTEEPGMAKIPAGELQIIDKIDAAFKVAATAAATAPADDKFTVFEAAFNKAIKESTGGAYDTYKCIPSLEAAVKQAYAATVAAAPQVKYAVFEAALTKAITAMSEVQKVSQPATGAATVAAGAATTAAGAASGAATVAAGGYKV
8.38
